- measurement.description: Pharmacokinetics of DHE in dog serum after DPI inhalation vs intravenous bolus
- Format: in vivo, dogs
- experimental.conditions: dog, in vivo, inhaled or intranasal, 1 mg, dog serum, inhalation 1 mg DPI, n=3; read-out: Tmax Average (converted)

molecule	Tmax [min]
CN1C[C@H](C(=O)N[C@]2(C)O[C@@]3(O)[C@@H]4CCCN4C(=O)[C@H](Cc4ccccc4)N3C2=O)C[C@@H]2c3cccc4[nH]cc(c34)C[C@H]21 [DHE, dihydroergotamine]	6.7

---

- measurement.description: Pharmacokinetics of DHE in dog serum after DPI inhalation vs intravenous bolus
- Assay type: in vivo, dogs
- experimental.conditions: dog, in vivo, dog, inhalation 1.0 mg vs iv bolus 0.5 mg, n=3; read-out: F (bioavailability) Average (%)

compound	bioavailability / %
CN1C[C@H](C(=O)N[C@]2(C)O[C@@]3(O)[C@@H]4CCCN4C(=O)[C@H](Cc4ccccc4)N3C2=O)C[C@@H]2c3cccc4[nH]cc(c34)C[C@H]21 [DHE, dihydroergotamine]	52

---

- measurement.description: Pharmacokinetics of DHE in dog serum after DPI inhalation vs intravenous bolus
- Type: in vivo, dogs
- experimental.conditions: dog, in vivo, inhaled or intranasal, 1 mg, dog serum, inhalation 1 mg DPI, individual dogs; read-out: Tmax (converted)

compound	Tmax / min
CN1C[C@H](C(=O)N[C@]2(C)O[C@@]3(O)[C@@H]4CCCN4C(=O)[C@H](Cc4ccccc4)N3C2=O)C[C@@H]2c3cccc4[nH]cc(c34)C[C@H]21 [DHE, dihydroergotamine]	5
